B1: tRNA (parent)
chain: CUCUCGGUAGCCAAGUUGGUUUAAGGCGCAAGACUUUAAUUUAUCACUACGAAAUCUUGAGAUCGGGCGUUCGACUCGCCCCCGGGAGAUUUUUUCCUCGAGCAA

# Variants of: B1
# METHOD: nonsense suppression (GFP-seq) (ratio to wild type); higher = more function; SUP4oc tRNA, yeast GFP reporter sort-seq
Variants at the floor of the assay were thinned out.
MEASURED_PARAMETER: nonsense suppression

{"SEQUENCE_CHAIN": "CUCUCGGUAGCCAAGUUGGUGUAAGGCGCAAGACUUUAAUUUAUCACUACGAAAUCUUGAGAUCGGUCGUACGACUCGCCCCCGGGAGAUUUUUUCCUCGAGCAA [U21G G67U U71A]", "OBSERVED": "≤ 0.026"}
{"SEQUENCE_CHAIN": "CUCUCGGUAGCCAAGUUGGUUUAAGGCGCAAGACUUUAAUUUAUCACUACGAAAUCUUGAGCUGGGGCGUUCGACUCGCCCCCGGGAGAUUUUUUCCUCGAGCAA [A62C C64G]", "OBSERVED": "≤ 0.026"}
{"SEQUENCE_CHAIN": "CUCUCGGUAGCCAACUUGGUUUAAGGCGCAAGACUUUAAUUUAUCACUACGAAAUCUUGAGAUCGGGCGUUCGACUCGCCCCCGGGUGAUUUUUUCCUCGAGCAA [G15C A87U]", "OBSERVED": "≤ 0.026"}
{"SEQUENCE_CHAIN": "CUCUAGGUAGCCAAGUUGGUUUAAGGCGCAAGACUUUAAUUUAUCACUACGAAAUCUUCAGAUCGGGCGUUCGACUCGCCCCCGGGAGAUUUUUUCCUCGAGCAA [C5A G59C]", "OBSERVED": "≤ 0.026"}
{"SEQUENCE_CHAIN": "CUUUCGGUUGCCAAGUUGGUUUAAGGCGCGAGACUUUAAUUUAUCACUACGAAUUCUUGAGAUCGGACGUUCGACUCGCCCCCGGGAGAUUUUUUCCUCGAGCAA [C3U A9U A30G A54U G67A]", "OBSERVED": "≤ 0.026"}
{"SEQUENCE_CHAIN": "CUCUCGGUAGCCAAGUUGGUUUAAGGCGCGAGACUUUAAUUUAUCACUACGAAAUCUUGAGAUCGGGCGUUCGACUCGCCCCCGGGAGCUUUUUUCCUCGAGCAA [A30G A89C]", "OBSERVED": 0.0603}
{"SEQUENCE_CHAIN": "CUCUCGGUAGCCAAGUUGGUUUAAGGCGCAAGACUUUAAUUUAUCACUACGAAAUCUUGACACCGGGCGUUCGACUCGCCCCCGGGAGAUUUUUUCCUCGAGCAA [G61C U63C]", "OBSERVED": 0.196}
{"SEQUENCE_CHAIN": "CUCGCGGUAGCCAAGUUGGUUUAAGGCGCAAGACUUUAAUUUAUCACUACGAAAUCUUGAGAUCGGGCGUUCGAUUCGCCCCCGGGAGAUUUUUUCCUCGAGCAA [U4G C75U]", "OBSERVED": 1.1}
{"SEQUENCE_CHAIN": "UUCUCGGUAGCCAAGUUGGUUUAAGGCGCAAGACUUUAAUUUAUCACUACGAAAUCUUGAGAUCGGCCGUUCGACUCGCCCCCGGGAGAUUUUUUCCUCGAGCAA [C1U G67C]", "OBSERVED": "≤ 0.026"}
{"SEQUENCE_CHAIN": "CUCUCGGUAGCCAAGUUGGUUUAAGGCGCAAGACUUUAAUUUAUCACUACGAAAUCUUGGGAUCGGGCAUUCGACUCGCCCCCGGGAGAUUUUUUCCUCGAGCAA [A60G G69A]", "OBSERVED": 0.0526}
{"SEQUENCE_CHAIN": "CUCUCGGUAGCCAAGUUGGUUUAAGGCGCAAGACUUUAAUUUAUCACUACGAAAUCUUGAGAUCGCGCGUUCGACUCGCCCCCGAGAGAUUUUUUCCUCGAGCAA [G66C G85A]", "OBSERVED": "≤ 0.026"}
{"SEQUENCE_CHAIN": "CUCUCGGUAGCCAAGUUGGUUUAAGGCGCAAGACUUUAAUUUAUCACUACGAAAUCUUGAAACCGGGCGUUCGACUCGCCCCCGGGAGAUUUUUUCCUCGAGCAA [G61A U63C]", "OBSERVED": 0.728}
{"SEQUENCE_CHAIN": "CUCUCGGUAGCCAAGUUGGUUUAAGGCGCAAGACUUUAAUUUAUCACUACGAAAUCUUGAGAUCGGGCGUUCGACUCACCCCCGGGAGAUUUUUUCCUCGAGCAA [G78A]", "OBSERVED": 0.775}
{"SEQUENCE_CHAIN": "CUCUCGGUAGCCAAGUUGGUUUACGGCGCAAGACUUUAAUUUAUCACUACGAACUCUUGAGAUCGGGCGUUCGACUCGCCCCCGGGAGAUUUUUUCCUCGAGCAA [A24C A54C]", "OBSERVED": 0.198}
{"SEQUENCE_CHAIN": "CUCUCGGUAGCCAAGUUGGUUUAAGGCGCGAGUCUUUAAUUUAUCACUACGAAAUCUUGAGAUCGGGCGUUCGACUCGCCCCCGGGAGAUUUUUUCCUCGAGCAA [A30G A33U]", "OBSERVED": "≤ 0.026"}
{"SEQUENCE_CHAIN": "CUCUCGGCAGCCAAGUUGGUUUAAGGCGCAAGACUUUAAUUUAUCACUACGAAAUCUUGAGAUCGGGCGGUCGCCUCGCCCCCCGGAGAUUUUUUCCUCGAGCAA [U8C U70G A74C G84C]", "OBSERVED": 0.0541}
